System: RPMI-8226
protocol-text: NCI tumour cell line growth inhibition, 48 h
Calls of active or inactive are those of the source. No stated cut-off is given here; in the data, active = GI50 up to about 1.1 µM and inactive = higher.
Outcomes you can answer with include only these: yes for active, no for inactive

Worked cases, answers included:
compound="CC(=O)N(CN1C(=O)CCC1C(=O)O)c1cccc(O)c1 (stereo not drawn)" assayed_target=RPMI-8226 label=no
compound=Cc1c(Cl)cccc1NC(=O)c1cccc([N+](=O)[O-])c1O assayed_target=RPMI-8226 label=no
compound="CC(=O)NC1CCC(NC(=O)OC(C)(C)C)C(NC(=O)OC(C)(C)C)C1 (stereo not drawn)" assayed_target=RPMI-8226 label=no
compound=OC[C@@H](O)[C@H](O)[C@H](O)[C@@H](O)C1SCCCS1 assayed_target=RPMI-8226 label=no
compound=CCOC(=O)CN1C(=O)c2ccc(NC(=O)C(=O)O)cc2S1(=O)=O assayed_target=RPMI-8226 label=no

Now let's try a different one.
Query :: Which outcome did this test record for the compound COc1ccc2c(c1O)-c1cc(O)cc3c1[C@@H](C2)N(C)CC3 ?
Result :: no

---

Test system: SK-MEL-2
protocol-text: NCI tumour cell line growth inhibition, 48 h
Activity calls are given as the source filed them. No stated cut-off is given here; in the data, active = GI50 up to about 1.1 µM and inactive = higher.
quantity-measured: GI50

Example entries begin here.
compound="CC(C)N(C(=O)C12C3C4C1C1C2C3C41C(=O)O)C(C)C (stereo unspecified)" recorded_result="> 100 µM (inactive)"
compound="NC1=NN(c2ccccc2)C(=O)C1/C(=N\\NC(=O)c1cc2ccccc2cc1O)C(=O)Nc1ccc(Cl)c(Cl)c1 (stereo unspecified)" recorded_result="55.7 µM (inactive)"
compound="O=C1C(=Cc2ccco2)C(=O)C2CCCCC12 (stereo unspecified)" recorded_result="> 100 µM (inactive)"
compound=CC1=Nc2ccccc2OC(C)=C1/N=N/c1ccc2[nH]c(C)nc2c1 recorded_result="> 100 µM (inactive)"
compound=CSc1c(C(=O)Nc2ccc(C)cc2)c(N)n(N)c(=O)c1C#N recorded_result="> 100 µM (inactive)"

For every item in the list below, what is its measured GI50?
1. COc1ccc2nccc(C3OC(=O)N4CCC(=O)CC34)c2c1 (stereo unspecified)
2. O=C(O)CSc1n[nH]c(=O)[nH]c1=O
3. COc1cc(Nc2nc3cc(C(F)(F)F)ccc3nc2C(=O)O)cc(OC)c1OC
4. O=C(O)/C(=C/c1ccccc1[N+](=O)[O-])c1ccccc1
5. C=C[C@]1(C)CC(=O)C(C(C)C=O)[C@]12C(=O)Oc1cccc(C)c1C2=O (stereo partly specified)

Result ::
["> 100 µM (inactive)", "> 100 µM (inactive)", "19.1 µM (inactive)", "> 100 µM (inactive)", "17.1 µM (inactive)"]

Query :: // fetch SK-MEL-2 GI50 for Oc1ccc(SCc2cc(O)c(O)c(O)c2)cc1
Result :: 26.1 µM (inactive)

---

Test system: SF-539
protocol-text: NCI tumour cell line growth inhibition, 48 h
Active and inactive are the calls of the source. Cut-off read from the data, not from the text of the source: active = GI50 up to about 1.1 µM and inactive = higher. Square brackets hold non-standard residues; d marks the D form. Peptide text beside a SMILES is read from it. * marks the point of attachment. AllylGly = C=CC[CH](N)C(=O)O; Boc = CC(C)(C)OC(=O)*; OtBu = CC(C)(C)O*
Please provide measured GI50 for the entries that follow.

molecule=O=c1c2cc(I)ccc2nc(Sc2ncccc2[N+](=O)[O-])n1Cc1ccccc1 quantity_measured=GI50 recorded_result="32.2 µM (inactive)"
molecule="CC(=O)OC1CCn2nnc(COC(=O)NC(C)C)c21 (stereo not given)" quantity_measured=GI50 recorded_result="> 100 µM (inactive)"
molecule=Cc1ccc(-c2nc(Cc3n[nH]c(-c4ccc(C)cc4)n3)n[nH]2)cc1 quantity_measured=GI50 recorded_result="> 100 µM (inactive)"

For each entry beneath this line, provide reported GI50.
1. CC(C)(C)N1Cc2ccccc2/C(=C/Sc2ccccc2)C1=O
2. COC(=O)c1ccc(NCc2cc(O)ccc2O)cc1

Result ::
1: 8.57 µM (inactive); 2: 5.46 µM (inactive)

Hi there! I need GI50 for each item below, if you can.
1. Cc1ccc(S(=O)(=O)N2CCC(C(=O)O)(c3ccccc3)CC2)cc1
2. CCCN(CCC)C(=O)c1c(Cl)c2cccnc2n2c(C)cnc12
3. C=CCC(NC(=O)C(CC(=O)OC(C)(C)C)NC(=O)OC(C)(C)C)C(=O)OC (stereo not given) (Boc-Asp(OtBu)-[AllylGly]-OMe; configuration not given here)
4. COc1cc(Nc2c(C#N)[n+]([O-])c3ccccc3[n+]2[O-])cc(OC)c1OC
5. N/N=C1\C(OC(=O)Nc2cccc(Cl)c2)=Nc2ccccc21

Result ::
["> 100 µM (inactive)", "> 100 µM (inactive)", "> 100 µM (inactive)", "33.6 µM (inactive)", "17.1 µM (inactive)"]

---

Tested on: UACC-257
protocol-text: NCI tumour cell line growth inhibition, 48 h
Calls of active or inactive are those of the source. No stated cut-off is given here; in the data, active = GI50 up to about 1.1 µM and inactive = higher.
quantity-measured: GI50

compound=COc1cc(-c2cc(=O)c3c(O)c(CC=C(C)C)c(O)cc3o2)ccc1O quantity_measured=GI50 recorded_result="> 50 µM (inactive)"
compound=CCCCCCCCCc1cc(=O)c2c(O)cccc2o1 quantity_measured=GI50 recorded_result="36.3 µM (inactive)"
compound=COc1cc(OC)cc(-c2cc(O)c3cc4c(cc3n2)OCO4)c1 quantity_measured=GI50 recorded_result="1.96 µM (inactive)"

Required: GI50, one value per compound below.
1. CN1CCc2c(sc3ncn(C)c(=N)c23)C1
2. Cc1ccc(S(=O)(=O)Oc2nc3ccccc3nc2OS(=O)(=O)c2ccc(C)cc2)cc1
3. Cc1sc2nc3n(c(=O)c2c1C)N=C(c1ccc([N+](=O)[O-])cc1)CS3

Result ::
["> 100 µM (inactive)", "> 100 µM (inactive)", "> 100 µM (inactive)"]

# batch size: 4; output GI50 per entry
1. O=C(c1ccc(Cl)c(Cl)c1)N(C(=O)N1CCN(c2ccccc2)CC1)S(=O)(=O)c1ccccc1
2. COc1ccc(S(=O)(=O)NC(CCC(=O)NC(N)=O)C(=O)NC(N)=O)cc1 (stereo not given)
3. Cc1ccc(CC(=O)Nc2ccc(NC(=O)/C=C/NC(=O)/C=C/c3ccc(-c4ccccc4)cc3)cc2C(=O)c2ccccc2)cc1
4. CC(=O)C(=[N+]=[N-])C(=O)N(C)CCC#N

Result ::
> 100 µM (inactive)
> 100 µM (inactive)
2.05 µM (inactive)
> 10 µM (inactive)

---

Assignment: determine reported GI50 for the given molecules.
Tested on: A549
protocol-text: NCI tumour cell line growth inhibition, 48 h
Calls of active or inactive are those of the source. Rule as the data show it: active = GI50 up to about 1.1 µM and inactive = higher.

molecule="CSC12c3cc(C)n(-c4ccc([N+](=O)[O-])cc4)c3CC(C)(C)CN1C(=O)C2Oc1ccccc1 (stereo unspecified)" quantity_measured=GI50 recorded_result="46.1 µM (inactive)"
molecule=[N-]=[N+]=Nc1c(C=O)c(=O)n(-c2ccccc2)c2ccccc12 quantity_measured=GI50 recorded_result="39.3 µM (inactive)"
molecule=O=C1CCC(=O)c2sccc2N1 quantity_measured=GI50 recorded_result="> 100 µM (inactive)"
molecule="N#CCc1ccc(C(C#N)/C(CCCC(=O)Nc2cccc([N+](=O)[O-])c2)=N/NC(N)=S)cc1 (stereo unspecified)" quantity_measured=GI50 recorded_result="> 100 µM (inactive)"
molecule=CCOC(=O)C1=NC(c2ccccc2)(c2ccccc2)OC1=C(Cl)Cl quantity_measured=GI50 recorded_result="54.6 µM (inactive)"

Hey, quick one: what's GI50 for each of these?
1. O=C1C=CC(=O)c2c1c1c(c3c2C2c4ccccc4C3c3ccccc32)C2c3ccccc3C1c1ccccc12
2. N#CC(C#N)C(c1ccccc1)c1ccccc1
3. CC12CC(Sc3ccccc3N1)c1ccccc1O2 (stereo unspecified)
4. C[C@]12CC[C@@H]3c4ccc(O)cc4CC[C@H]3[C@@H]1C/C(=C\c1ccc(C#N)cc1)C2=O
5. Cc1cc2c(c(=O)o1)C1=S(SC(c3ccccc3)=C1)S2 (stereo unspecified)
6. Cc1ccc2c3ccc4c(c3n(C)c2c1)C(=O)C=CC4=O
7. Cc1ccc(-c2cc(C(F)(F)F)nn2-c2ccc(S(N)(=O)=O)cc2)cc1

Result ::
1. 8.69 µM (inactive)
2. > 100 µM (inactive)
3. 18.8 µM (inactive)
4. 30.8 µM (inactive)
5. 33.7 µM (inactive)
6. > 10 µM (inactive)
7. 14.4 µM (inactive)

Parameters: items (list). Returns: GI50 for each item.
1. CCOC(=O)C(=O)Nc1ccccc1C(F)(F)F
2. CC1(C)OP(=O)(c2ccccc2)C=C1Sc1ccc([N+](=O)[O-])cc1[N+](=O)[O-] (stereo unspecified)
3. COC(=O)/C=c1/c2ccccc2n2nc3ccccc3c12
4. C[S+](C)C1(c2ccccc2)C(=O)c2ccccc2C1=O
5. CCCn1c(SCC)c2cc3cc4ccccc4cc3cc2c1-c1nc(F)nc(F)n1

Result ::
> 100 µM (inactive)
> 100 µM (inactive)
65.9 µM (inactive)
36.4 µM (inactive)
> 100 µM (inactive)

For each listed entry, give its GI50.
1. CC1(C)OCC(C2OC(On3nnc4ccc(Cl)cc43)C3OC(C)(C)OC23)O1 (stereo unspecified)
2. O=C(Cc1ccccc1)NN1C(=O)/C(=C\c2ccccc2)S/C1=N\c1ccccc1
3. COc1cc(C2C(Cl)C(=O)N2NC(=O)c2ccc(N)cc2)cc(Br)c1O (stereo unspecified)
4. Oc1ccc(SCc2cc(O)c(O)c(O)c2)cc1

Result ::
1. > 100 µM (inactive)
2. > 100 µM (inactive)
3. 21.5 µM (inactive)
4. 49.5 µM (inactive)
